Where do the numbers come from? From BindingDB's records for PubMed 6655559.

target: D(2) dopamine receptor (Oryctolagus cuniculus)
Sequence (G1T1Q0 whole entry): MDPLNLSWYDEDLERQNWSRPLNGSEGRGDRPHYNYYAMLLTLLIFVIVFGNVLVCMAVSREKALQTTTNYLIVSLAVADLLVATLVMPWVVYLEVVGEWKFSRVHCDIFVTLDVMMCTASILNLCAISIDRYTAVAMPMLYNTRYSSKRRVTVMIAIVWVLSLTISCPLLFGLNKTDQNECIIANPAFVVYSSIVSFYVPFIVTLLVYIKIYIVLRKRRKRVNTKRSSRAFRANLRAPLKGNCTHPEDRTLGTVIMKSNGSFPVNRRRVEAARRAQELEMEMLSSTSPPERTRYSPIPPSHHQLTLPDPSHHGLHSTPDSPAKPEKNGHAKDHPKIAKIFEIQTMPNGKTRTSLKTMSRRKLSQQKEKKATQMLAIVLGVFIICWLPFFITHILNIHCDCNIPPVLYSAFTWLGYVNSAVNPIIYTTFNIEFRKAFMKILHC
# Ki values compiled below
Please provide the amount together with its unit, number first.

[
  {
    "structure.as.smiles": "Cc1ccc(N(CC2=NCCN2)c2cccc(O)c2)cc1",
    "Ki": "1200 nM"
  }
]

For the next question, use this compound.
Prompt: Enter reported Ki observed with D(2) dopamine receptor (Oryctolagus cuniculus) for O=C(c1ccc(F)cc1)C1CCN(CCn2c(=O)[nH]c3ccccc3c2=O)CC1
Response: 880 nM

====

biological target: D(2) dopamine receptor (Rattus norvegicus, UniProt P61169)
Sequence (P61169 whole entry): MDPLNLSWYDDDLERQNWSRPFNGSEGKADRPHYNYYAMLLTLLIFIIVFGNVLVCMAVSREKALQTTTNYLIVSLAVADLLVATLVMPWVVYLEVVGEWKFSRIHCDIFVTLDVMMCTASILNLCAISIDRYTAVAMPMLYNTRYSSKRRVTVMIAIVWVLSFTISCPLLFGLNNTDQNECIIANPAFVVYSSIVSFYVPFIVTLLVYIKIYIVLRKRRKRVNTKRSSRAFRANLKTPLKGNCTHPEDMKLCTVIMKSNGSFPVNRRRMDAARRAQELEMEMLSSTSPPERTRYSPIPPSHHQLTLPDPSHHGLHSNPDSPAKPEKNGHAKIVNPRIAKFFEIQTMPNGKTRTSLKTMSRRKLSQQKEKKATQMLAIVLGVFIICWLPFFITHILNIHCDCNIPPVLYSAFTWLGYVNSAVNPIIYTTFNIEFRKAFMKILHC
experimental.endpoint: pKi
pKi field: float, defined as -log10 of concentration (mol/L).

Prompt: Data request, read-out pKi, for CCCN(CCC)CCc1ccc(O)c(O)c1
Response: 6.89
